- Test system: HS 578T breast
- Method: NCI tumour cell line growth inhibition, 48 h
Measure name: TGI

> print(dat)
                                    compound  measured.target  test.result
 1                Cc1c2ccncc2cc2c1sc1ccncc12   HS 578T breast      20.4 µM
 2  O=C1CC(=O)NC(=NN2C(=O)CSC2c2ccc(Cl)c(Cl)c2)N1 (stereo unspecified)   HS 578T breast     > 100 µM
 3       Fc1ccc(-c2nc3n(c2-c2ccncc2)CCS3)cc1   HS 578T breast      > 25 µM
 4    N#Cc1ncc(/N=C/c2ccc(N(CCCl)CCCl)cc2)s1   HS 578T breast     > 100 µM
 5                          O=C(O)CSSCC(=O)O   HS 578T breast     > 100 µM
 6  CCOC(=O)c1c2c(n(CC(C)C)c1C)-c1nc[nH]c1C(=O)C2=O   HS 578T breast     > 100 µM
 7  CCOC(=O)C(c1c[nH]c2ccccc12)(c1c[nH]c2ccccc12)c1c[nH]c2ccccc12   HS 578T breast      76.2 µM
 8  C=C1C(=O)C([Si](C)(C)C)=C2C=C(C)C3(CC3)C12C (stereo unspecified)   HS 578T breast     > 100 µM
 9  Oc1ccccc1/C=N/Nc1nnc2c3ccccc3c3ccccc3c2n1   HS 578T breast     > 100 µM
10  COc1cc2c(/C=C3/C(=O)Nc4ccc(Cl)cc43)c(Cl)n(Cc3ccccc3)c2cc1C   HS 578T breast     > 100 µM
11   COc1ccc(/C=C(\Cl)c2ccc(OC)c(OC)c2)cc1OC   HS 578T breast     > 100 µM
